measurementTarget: BTK wild type (Homo sapiens (Human), UniProt Q06187)
Sequence (Q06187 whole entry): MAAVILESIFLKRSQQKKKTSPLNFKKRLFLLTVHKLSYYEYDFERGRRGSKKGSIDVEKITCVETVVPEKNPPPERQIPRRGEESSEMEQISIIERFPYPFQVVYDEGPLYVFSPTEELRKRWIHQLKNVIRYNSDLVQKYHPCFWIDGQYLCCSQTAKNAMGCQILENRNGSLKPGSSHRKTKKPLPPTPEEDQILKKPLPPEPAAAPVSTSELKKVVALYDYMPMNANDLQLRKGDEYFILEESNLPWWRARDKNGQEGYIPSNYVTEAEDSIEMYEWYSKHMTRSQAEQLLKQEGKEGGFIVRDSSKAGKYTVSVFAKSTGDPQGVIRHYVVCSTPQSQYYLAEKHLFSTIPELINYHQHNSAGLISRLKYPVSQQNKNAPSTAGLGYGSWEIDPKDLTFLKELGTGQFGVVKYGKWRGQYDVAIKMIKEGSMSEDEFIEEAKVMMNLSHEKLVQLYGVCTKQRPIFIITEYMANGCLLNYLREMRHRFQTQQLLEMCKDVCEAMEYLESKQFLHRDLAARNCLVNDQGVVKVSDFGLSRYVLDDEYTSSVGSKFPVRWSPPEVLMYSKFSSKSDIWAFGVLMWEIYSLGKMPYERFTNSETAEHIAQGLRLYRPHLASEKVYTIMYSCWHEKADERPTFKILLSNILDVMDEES
testDetails: Inhibition assay of BTK kinase activity (HTRF)
Type: biochemical
assayContext: read-out: BTK IC50
pIC50: −log10 of the molar value.
Let's look at some compounds and their measured pIC50.

{"columns": ["compound", "pIC50"],
 "data": [
  ["O=C(CC(=O)C(F)(F)F)Nc1ncnc2c1c(-c1ccc(Oc3c(F)c(F)cc(F)c3F)cc1F)nn2C1CCCNC1 (centres unmarked)", 6.14],
  ["Nc1ncnc2c1c(-c1ccc(Oc3c(F)c(F)cc(F)c3F)cc1F)nn2[C@@H]1CCN(C(=O)C(=O)O)C1", 6.15],
  ["C=CC(=O)N[C@H]1CC[C@H](n2nc(-c3ccc(Oc4cccc(F)c4)cc3F)c3c(N)ncnc32)CC1", 8.05],
  ["C=C(C#N)C(=O)N1CCCC(n2nc(-c3ccc(Oc4c(F)c(F)cc(F)c4F)cc3F)c3c(N)ncnc32)C1 (centres unmarked)", 6.29],
  ["Nc1ncnc2c1c(-c1ccc(Oc3c(F)c(F)cc(F)c3F)cc1F)nn2[C@H]1CCCN(C(=O)CCl)C1", 8.70],
  ["Nc1ncnc2c1c(-c1ccc(Oc3c(F)c(F)cc(F)c3F)cc1F)nn2[C@@H]1CCCN(C(=O)CCl)C1", 8.70],
  ["C=CC(=O)N1CCCC(n2nc(-c3ccc(Oc4c(F)ccc(F)c4F)cc3F)c3c(N)ncnc32)C1 (centres unmarked)", 8.30],
  ["Nc1ncnc2c1c(-c1ccc(Oc3c(F)c(F)cc(F)c3F)cc1F)nn2C1CCC(N2C(=O)CSC2=O)CC1 (centres unmarked)", 5.79]
]}
